test system: Candida albicans; assay: Antimicrobial activity against Candida albicans ATCC 12301 after 24 hrs by agar dilution method; format: functional; conditions: ATCC 10231, 24 h, in the assay text read “ATCC 10231” for “ATCC 12301”, read-out: MIC
// values below are reported MIC
Parameter Measured: MIC (µg/mL)

>  <Smiles Data>
COc1ccc(CCCCCCCCC(=O)c2c(OC)cccc2OC)cc1

>  <U>
µg/mL

>  <Limit Qualifier>
<

>  <Data Value>
32

$$$$
>  <Smiles Data>
O=C(CCCCCCCCc1ccc(O)c(O)c1)c1c(O)cccc1O

>  <U>
µg/mL

>  <Limit Qualifier>
=

>  <Data Value>
32

$$$$
>  <Smiles Data>
COc1ccc(CCCCCCCCC(=O)c2c(O)cccc2OC)cc1

>  <U>
µg/mL

>  <Limit Qualifier>
<

>  <Data Value>
32

$$$$
>  <Smiles Data>
Oc1ccc(CCCCCCCCCc2c(O)cccc2O)cc1

>  <U>
µg/mL

>  <Limit Qualifier>
=

>  <Data Value>
16

$$$$
>  <Smiles Data>
O=C(CCCCCCCCc1ccc(O)cc1)c1c(O)cccc1O

>  <U>
µg/mL

>  <Limit Qualifier>
=

>  <Data Value>
16

$$$$
>  <Smiles Data>
COc1cccc(OC)c1C(=O)CCCCCCCCc1ccc(O)cc1

>  <U>
µg/mL

>  <Limit Qualifier>
<

>  <Data Value>
32

$$$$

---

// values below are reported MIC
tested on: Bacillus subtilis; test: Antimicrobial activity against Bacillus subtilis NCTC 10400 after 24 hrs by agar dilution method; assay type: functional; settings: NCTC 10400, 24 h, read-out: MIC
Parameter Measured: MIC

>  <Molecule>
COc1cccc(O)c1C(=O)CCCCCCCCc1ccc(O)cc1

>  <Data Value>
4 µg/mL

$$$$
>  <Molecule>
Oc1ccc(CCCCCCCCCc2c(O)cccc2O)cc1

>  <Data Value>
4 µg/mL

$$$$
>  <Molecule>
Oc1ccc(CCCCCCCCC(O)c2c(O)cccc2O)cc1 (stereo unspecified)

>  <Data Value>
4 µg/mL

$$$$
>  <Molecule>
O=C(CCCCCCCCc1ccc(O)c(O)c1)c1c(O)cccc1O

>  <Data Value>
2 µg/mL

$$$$
>  <Molecule>
O=C(N[C@H](CO)[C@H](O)c1ccc([N+](=O)[O-])cc1)C(Cl)Cl

>  <Data Value>
4 µg/mL

$$$$
>  <Molecule>
O=C(CCCCCCCCc1ccc(O)cc1)c1c(O)cccc1O

>  <Data Value>
1 µg/mL

$$$$

---

test system: Staphylococcus aureus; experiment: Antimicrobial activity against Staphylococcus aureus NCTC 6571 after 48 hrs by agar dilution method; type: functional; conditions: NCTC 6571, 48 h, read-out: MIC
// values below are reported MIC
Parameter Measured: MIC (µg/mL)

>  <Compound>
O=C(CCCCCCCCc1ccc(O)c(O)c1)c1c(O)cccc1O

>  <System Tested>
Staphylococcus aureus

>  <Parameter Measured>
MIC

>  <Data Value>
8

$$$$
>  <Compound>
Oc1ccc(CCCCCCCCCc2c(O)cccc2O)cc1

>  <System Tested>
Staphylococcus aureus

>  <Parameter Measured>
MIC

>  <Data Value>
4

$$$$
>  <Compound>
Oc1ccc(CCCCCCCCC(O)c2c(O)cccc2O)cc1 (stereo unspecified)

>  <System Tested>
Staphylococcus aureus

>  <Parameter Measured>
MIC

>  <Data Value>
16

$$$$
>  <Compound>
COc1cccc(O)c1C(=O)CCCCCCCCc1ccc(O)cc1

>  <System Tested>
Staphylococcus aureus

>  <Parameter Measured>
MIC

>  <Data Value>
4

$$$$
>  <Compound>
O=C(CCCCCCCCc1ccc(O)cc1)c1c(O)cccc1O

>  <System Tested>
Staphylococcus aureus

>  <Parameter Measured>
MIC

>  <Data Value>
1

$$$$
>  <Compound>
O=C(N[C@H](CO)[C@H](O)c1ccc([N+](=O)[O-])cc1)C(Cl)Cl

>  <System Tested>
Staphylococcus aureus

>  <Parameter Measured>
MIC

>  <Data Value>
4

$$$$

---

// values below are reported MIC
system: Candida albicans; test: Antimicrobial activity against Candida albicans 3110 after 24 hrs by agar dilution method; format: functional; conditions: Candida albicans, 3110, 24 h; read-out: MIC
Parameter Measured: MIC (µg/mL)

>  <Smiles Data>
O=C(CCCCCCCCc1ccc(O)c(O)c1)c1c(O)cccc1O

>  <U>
µg/mL

>  <Limit Qualifier>
=

>  <Data Value>
8

$$$$
>  <Smiles Data>
COc1cccc(OC)c1C(=O)CCCCCCCCc1ccc(O)cc1

>  <U>
µg/mL

>  <Limit Qualifier>
<

>  <Data Value>
32

$$$$
>  <Smiles Data>
O=C(CCCCCCCCc1ccc(O)cc1)c1c(O)cccc1O

>  <U>
µg/mL

>  <Limit Qualifier>
=

>  <Data Value>
8

$$$$
>  <Smiles Data>
CC(=O)c1c(O)cccc1O

>  <U>
µg/mL

>  <Limit Qualifier>
<

>  <Data Value>
32

$$$$
>  <Smiles Data>
Oc1ccc(CCCCCCCCCc2c(O)cccc2O)cc1

>  <U>
µg/mL

>  <Limit Qualifier>
=

>  <Data Value>
8

$$$$
